Assay: Single dose 300 mg / 450 mg pharmacokinetic, safety and tolerability study in healthy male and female subjects
Conditions: both, human, plasma, po, 300 mg
Test readout: concentration at 3 h (ng/mL)
Give the number; ng/mL is assumed, so skip it.

Look up and state reported concentration at 3 h for O=C1NCC2(c3ccc(Cl)c(Cl)c3)CC12 (stereo not shown) [EB-10101]
1410

* * *

Assay: 26-week rat toxicity and toxicokinetic study
Type: in vivo
Settings: female, Crl:CD(SD)IGS BR, rat, plasma, po, 8 mg/kg/day, females, 8 mg/kg/day, Day 177; read-out: AUC0-24
Test readout: AUC(0-t) (ng·h/mL)
Give the number; ng·h/mL is assumed, so skip it.

Look up and state reported AUC(0-t) for Clc1ccc([C@]23CNC[C@H]2C3)cc1Cl
11100
